Source of measurements: patent EP0326331B1

Tested on: Twospotted spider mites (Tetranychus urticae Koch)
Assay: Mite/insect screen, SM
Format: in vivo
Details: Tetranychus urticae, foliar, percent mortality; rate 400 ppm, foliar spray on squash; read-out: SM RESULTS %
Protocol: The compounds of Examples 1-295 were tested for miticidal and insecticidal activity in the following mite/insect screen. Each test compound was formulated by dissolving the compound in acetone/alcohol (50:50) mixture containing 23 g of "TOXIMUL R" (sulfonate/nonionic emulsifier blend) and 13 g of "TOXIMUL S" (sulfonate/nonionic emulsifier blend) per liter. […] After standard exposure periods, percent mortality was evaluated. […]

{"columns": ["COMPOUND", "mortality at 400 ppm [%]"],
 "data": [
  ["Clc1cccc2c(CCCc3ccccc3)ccnc12", 0],
  ["Fc1cccc2c(OC3CCCCC3c3ccccc3)ccnc12 (stereo not drawn)", 0],
  ["Fc1cccc2c(OCCCC(Br)CBr)ccnc12 (stereo not drawn)", 0],
  ["CC(C)(C)c1ccc(CCCc2ccnc3c(F)cccc23)cc1", 0],
  ["CC(C)(C)c1ccc(CCCOc2ccnc3c(F)cccc23)cc1", 0],
  ["Fc1cccc2c(OCC=Cc3ccccc3)ccnc12", 0],
  ["C=CCCCOc1ccnc2c(F)cccc12", 100],
  ["Clc1ccc(CCCOc2ccnc3c(Cl)cccc23)cc1", 0],
  ["Fc1cccc2c(OCCc3ccccc3-c3ccccc3)ccnc12", 100],
  ["COc1ccc(CCNc2ccc3c(NCCc4ccc(OC)cc4)ccnc3c2)cc1", 0],
  ["COc1ccc(CCOc2ccnc3c(F)cccc23)cc1", 100],
  ["CC(=O)Oc1ccc(CCN(C(C)=O)c2ccnc3c(F)cccc23)cc1", 0],
  ["Fc1cccc2c(OCCc3ccc4ccccc4c3)ccnc12", 0],
  ["FC(F)(F)c1ccc2c(NCCc3ccc4ccccc4c3)ccnc2c1", 0],
  ["Clc1ccc2c(OCCc3ccc(-c4ccccc4)cc3)ccnc2c1", 80],
  ["Clc1ccc(CCOc2ccnc3cc(Cl)ccc23)cc1", 0],
  ["Fc1cccc2c(OCCc3cccc(Cl)c3)ccnc12", 80],
  ["CC(C)(C)c1ccc(CCOc2ccnc3ccccc23)cc1 [Example 262, 4-[2-[4-(t-butyl)phenyl]ethoxy]quinoline]", 100],
  ["Fc1ccc2c(OCCOc3ccc(Br)cc3)ccnc2c1", 0],
  ["Clc1cc(Cl)c2c(OCCc3ccc(-c4ccccc4)cc3)ccnc2c1", 0],
  ["Fc1ccc2nccc(NCCC3=CCCCC3)c2c1", 0],
  ["CC(C)(CNc1ccnc2c(F)cccc12)c1ccccc1", 0],
  ["Cc1cccc(CCOc2ccnc3c(F)cccc23)c1", 0],
  ["Fc1cccc2c(NCCc3ccc(OCc4ccccc4)cc3)ccnc12", 0],
  ["Fc1cccc2c(OCCc3ccccc3C(F)(F)F)ccnc12", 0],
  ["Cc1ccc(CCCc2ccnc3c(F)cccc23)cc1", 90],
  ["Fc1cccc2c(NCCc3ccccn3)ccnc12", 0],
  ["Clc1ccc(CCNc2ccc3c(NCCc4ccc(Cl)cc4)ccnc3c2)cc1", 0],
  ["Fc1cccc2c(OCCc3ccccc3Cl)ccnc12", 0],
  ["COc1ccc(CCOc2ccnc3c(F)cccc23)cc1OC", 0],
  ["Cc1ccc(CCOc2cc(OCCc3ccc(C)cc3)c3cccc(F)c3n2)cc1", 0],
  ["Fc1cccc2c(OCCCc3ccc(Oc4ccccc4)cc3)ccnc12", 0],
  ["Cc1ccccc1CCOc1ccnc2c(F)cccc12", 0],
  ["FC(F)(F)c1ccc2c(NCCC3=CCCCC3)ccnc2c1", 0],
  ["CC(C)(C)c1ccc(CCOc2ccnc3cc(Cl)ccc23)cc1", 40],
  ["COc1cccc(CCOc2ccnc3c(F)cccc23)c1", 0],
  ["CC(COc1ccnc2c(F)cccc12)c1ccccc1 (stereo not drawn)", 0],
  ["CC(=O)N(CCc1ccc(Cl)cc1)c1ccc2c(N(CCc3ccc(Cl)cc3)C(C)=O)ccnc2c1", 0],
  ["Cc1ccc(CCOc2ccnc3cc(Cl)ccc23)cc1", 0]
]}
